Just for reference, ChEMBL document CHEMBL5665443 is where these values come from.

# Measurement target: Adenine DNA glycosylase (Homo sapiens) (UniProt Q9UIF7);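 note: human MUTYH activity read as 594 nm fluorescence from cleavage and release of a quenched DNA duplex, coupled with APE1 for strand incision, lower signal meaning inhibition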
# Sequence (Q9UIF7 whole entry): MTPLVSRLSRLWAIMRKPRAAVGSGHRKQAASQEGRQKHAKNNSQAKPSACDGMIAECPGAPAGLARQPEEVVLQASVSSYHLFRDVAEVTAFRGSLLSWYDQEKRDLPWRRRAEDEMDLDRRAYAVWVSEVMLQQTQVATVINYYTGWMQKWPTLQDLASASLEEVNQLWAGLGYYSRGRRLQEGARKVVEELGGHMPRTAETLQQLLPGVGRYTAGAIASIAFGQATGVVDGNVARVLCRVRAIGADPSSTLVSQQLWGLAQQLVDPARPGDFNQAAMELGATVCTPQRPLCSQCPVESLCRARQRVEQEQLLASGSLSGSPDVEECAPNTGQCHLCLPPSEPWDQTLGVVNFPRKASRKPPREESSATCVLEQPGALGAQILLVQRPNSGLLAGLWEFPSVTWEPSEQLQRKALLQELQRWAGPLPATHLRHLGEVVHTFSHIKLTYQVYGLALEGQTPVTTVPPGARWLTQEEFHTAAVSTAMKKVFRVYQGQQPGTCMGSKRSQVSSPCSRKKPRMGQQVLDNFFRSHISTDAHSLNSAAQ
# Setup conditions: Compound Concentration 10.0 uM, Hit No
# Description: Inhibition of MUTYH by quantifying inhibition of MUTYH-mediated cleavage and dissociation of quenched duplex DNA oligonucleotides, measured as fluorescence at 594 nm. To generate a functional strand incision and increase turn-over this assay is coupled to APE1.
Reported property: inhibition

Some compounds with known inhibition results, for comparison:
The recorded inhibition for "CCCN(CCC)CCc1cccc2c1CC(=O)N2" is 10.1%

Sure, the documented inhibition for "CO[C@H]1/C=C/O[C@@]2(C)Oc3c(C)c(O)c4c(O)c(c(/C=N/N5CCN(C)CC5)c(O)c4c3C2=O)NC(=O)/C(C)=C\C=C\[C@H](C)[C@H](O)[C@@H](C)[C@@H](O)[C@@H](C)[C@H](OC(C)=O)[C@@H]1C" is 34.5%

Briefly, inhibition measured for "CCc1ccc(OCc2ccccc2C(=O)Nc2ccc3nc(C)cc(N)c3c2)cc1" : 77.8%

Lab note: measured inhibition of "NS(=O)(=O)c1cncc(-c2nc(NCc3ccccn3)c3c(-c4ccccc4)cccc3n2)c1" was 8.92%

Others:
The reported value for "CC(C)c1ccc(CC(=O)N2CCC[C@@H](c3cccc(OC(C)(C)C(=O)O)c3)C2)cc1" in terms of inhibition is -0.105%

Sample "Cc1cc(NC(=O)Nc2ccc(N(C)C)cc2)c2cc(F)cc(F)c2n1" ; inhibition observed: 6.04%
